Provenance of the data: PubChem BioAssay (NCI)

# assay.overview: NCI Yeast Anticancer Drug Screen. Data for the mlh1 rad18 strain (AID 175)
# recorded.conditions: S. cerevisiae mlh1 rad18 strain growth inhibition; at 50.0 µM (retest, dose inferred, filed as 5.0); active compounds read high
About 79,000 compounds went through this panel and 15% of them were active in at least one assay; those are over-represented in the sample as a whole.
value.kind: growth inhibition (%)
Value expressed in %; do not type the unit.

The examples below pair each entry with its known result.
{"columns": ["molecule", "growth inhibition [%]"],
 "data": [
  ["COC1=C(OC)C(=O)C(Sc2ccc3ccccc3c2)=CC1=O", 96],
  ["Cc1cc(C)nc(NS(=O)(=O)c2ccc(Nc3c4ccccc4nc4c(C(=O)NCCO)cccc34)cc2)n1", 44],
  ["O=[N+]([O-])c1cc(F)c(F)cc1Sc1cc(F)c(F)cc1[N+](=O)[O-]", 97],
  ["Clc1ccc(NCNC2Nc3ccccc3N2)cc1Cl", 98],
  ["CC(=O)OC1CCC2(C)C(=CC(C3C=C4CC(OC(C)=O)CCC4(C)C4=C3C3CC5OC6(CCC(C)CO6)C(C)C5C3(C)CC4)C3=C2CCC2(C)C3CC3OC4(CCC(C)CO4)C(C)C32)C1 (stereo not given)", 88]
]}

Let us move to another entry and its growth inhibition.
**Query** Could you share which growth inhibition value was measured for `O=C(O)c1ccccc1/C=N/N=C1c2ccccc2-c2ccccc21` ?
**Result** 39

* * *

Entries annotated with measured growth inhibition
# assay.overview: NCI Yeast Anticancer Drug Screen. Data for the rad14 strain (AID 159);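 note: 0% = growth of vehicle-treated control cultures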
# recorded.conditions: S. cerevisiae rad14 strain growth inhibition; at 1.2 µM; active compounds read high
This is part of a sample that, as a whole, favours compounds with a hit. Of some 79,000 tested, about 15% had one in any assay.
Response body: numeric value in %, unit text excluded.

{"columns": ["compound", "data.value"],
 "data": [
  ["O=[N+]([O-])c1ccc(N/N=C/Cc2ccccc2)c([N+](=O)[O-])c1", -5],
  ["CN(C)Cc1cc(N=Nc2ccc(Cl)cc2)ccc1OC(=O)c1ccccc1", -1],
  ["CN(C)CCNC(=O)c1cccc2cc([N+](=O)[O-])ccc12", -1],
  ["OC(/C=C/c1ccccc1)(Cc1cc(-c2ccccc2)n[nH]1)c1ccccc1 (stereo not given)", 15]
]}

Now examine the next entry.
**Query** Can you share its growth inhibition? I mean this compound: `Oc1ccc(-c2nc(-c3ccc(F)cc3)c(-c3ccc4ccccc4n3)[nH]2)cc1`
**Result** -51

* * *

Below, each entry is listed with its recorded growth inhibition.
# assay.overview: NCI Yeast Anticancer Drug Screen. Data for the rad50 strain (AID 155);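 note: 0% = growth of vehicle-only cultures of the same strain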
# recorded.conditions: S. cerevisiae rad50 strain growth inhibition; at 1.2 µM; active compounds read high
Compounds without any hit were thinned out: in the full panel of roughly 79,000, 15% have a hit.
The answer is to be given in %; state only the numeric part.

Solved cases below.
{"columns": ["compound", "growth inhibition [%]"],
 "data": [
  ["COC(=O)C1(C)CCc2c(ccc3ccccc23)C1=O (centres undefined)", -1],
  ["CCCCCCSc1ncnc2[nH]ncc12", 2],
  ["O=C1CSC(c2cccc(Cl)c2)N1c1ccc(-c2ccc(-n3c(-c4ccccc4)nc4ccccc4c3=O)cc2)cc1 (centres undefined)", 2]
]}

**Query** Need growth inhibition of `O=C(CSC(=S)N1CCCCC1)Nc1nc2c(s1)CCCC2` , thanks.
**Result** -11

**Query** Next compound up: `O=[N+]([O-])/C=C/c1cc(Cl)c(/C=C/[N+](=O)[O-])cc1Cl`
**Result** 33

**Query** How about Cc1nc2c(Br)cc(Br)cc2c(=O)n1-c1ccccc1NC1OCC(O)C(O)C1O (centres undefined) ?
**Result** 0

**Query** How about this compound: `c1ccc(-c2cnc3ccccc3c2)cc1`
**Result** -5

**Query** Please do the same for O=C(NNc1ccccc1)C(O)C(O)C(O)C(O)C(O)CO (centres undefined) as well.
**Result** 5

**Query** Then `CCOC1(c2cccc([N+](=O)[O-])c2)c2ccccc2Oc2ccccc21` ?
**Result** 1

**Query** Same for `CCCCCCCCCCCCCCCCCC(=O)NCCCN(C)C`
**Result** -27

**Query** Similarly, `S=c1sc2c(s1)SCCS2` ?
**Result** 0

**Query** Would you mind doing `CCOC(=O)c1cc([N+](=O)[O-])c(Sc2ncnc3nc[nH]c23)c([N+](=O)[O-])c1` as well?
**Result** -40
